I'd be grateful if you could share measured cell viability for these entries.
System: SEM cells
Assay: cell viability relative to DMSO control; higher = less cytotoxic
Conditions: HPLM + 10% dialyzed FBS; 48 h; 0.00702 µM
Give bare numbers, in %.

Here's what some known entries look like.
compound | target_entity | measurement_unit | cell viability
COC[C@H](c1ccc(C(F)(F)F)cc1)N1CCN(C2(C)CCN(C(=O)c3c(C)ncnc3C)CC2)C[C@H]1C.O=C(O)/C=C\C(=O)O | SEM cells | % | 105
Cc1ccc([S+](=O)([O-])Nc2nc3ccccc3nc2Nc2ccc3nsnc3c2)cc1 | SEM cells | % | 99.9
C=CCc1cccc(/C=N/NC(=O)CN2CCN(Cc3ccccc3)CC2)c1O | SEM cells | % | 128

Would you mind listing cell viability for each of the following compounds?
1. Cc1csc(NC(=O)c2sc3nc4c(c(C(F)(F)F)c3c2N)CCC4)n1
2. COc1cc2nc(N3CCN(C(=O)C4CCCO4)CC3)nc(N)c2cc1OC (centres undefined)

[93.6, 97]

Field: cell viability. Fill in for each record below.
1. COc1ccc2[nH]c([S+]([O-])Cc3ncc(C)c(OC)c3C)nc2c1 (centres undefined)
2. CC(C)c1cnn2c(NCc3ccccc3)cc(NCCCCCCN)nc12

[66.8, 121]

For the 2 compounds below, give their cell viability values.
1. C[C@]12CC[C@H]3[C@@H](C\C=C/4C[C@@H](O)CC[C@]34C)[C@@H]1CCC2=O
2. COC1=CC=CC(=C1N)\C2=C\C(=O)C3=C(O2)C=CC=C3

91.1
124
